Source: paper PMC9855432

# Tested on: human CRC HT-29 cells
# assayComment: MTT cell viability / IC50 on HT-29 cells
# Assay type: cell-based
# assayConditions: Homo sapiens, HT-29, 48 h, MTT assay, 1 to 50 µM, mean ± SEM of at least three experiments
measurementType: IC50 (µM)

COc1ccc(C(=Cc2ccc(C(C)C)cc2)c2ccccn2)cc1: 34.9
COc1ccc(C(Oc2ccc(Br)cc2)c2ccccn2)cc1 (centres unmarked): 37.9

----------
# Tested on: human CRC HT-29 cells
# assayComment: MTT cell viability / IC50 on HT-29 cells
# Type: cell-based
# assayConditions: MTT assay, 48 h, 1 to 50 µM, mean ± SEM of at least three experiments
# Method: Cells were grown in DMEM medium for HT-29 cells and RPMI 1640 medium for HCT116 cells, supplemented with 10% FBS, 1% L-glutamine and 100 U/mL penicillin and 100 μg/mL streptomycin. […] All compounds were tested on the metabolic activity of the cells using the MTT colorimetric assay. […] The optical density was detected with a microplate reader (Thermoscientific, Multiskan FC) at 550 nm and cell viability was expressed as a percentage of each treatment condition compared to control cells. […]
measurementType: IC50 (µM)

COc1ccc(C(=Cc2ccc(C(F)(F)F)cc2)c2ccccn2)cc1 [Compound 12a]: 23
COc1ccc(C(=Cc2ccc(Br)cc2)c2ccccn2)cc1 [Compound 13a]: 24
COc1ccc(C(=Cc2ccc(C(C)(C)C)cc2)c2ccccn2)cc1 [Compound 10b]: 25.2
COc1ccc(C(=Cc2ccc(C)cc2)c2ccccn2)cc1: 36.2
COc1ccc(C(=Cc2ccc(C(C)(C)C)cc2)c2ccccn2)cc1 [Compound 10a]: 25.7
COc1ccc(C(=Cc2ccc(Cl)cc2)c2ccccn2)cc1 [Compound 14a]: 28.5
